# Tested On: MurA (EPT E coli) (Escherichia coli, UniProt P0A749)
# Construct: made in house
# Sequence (P0A749 whole entry): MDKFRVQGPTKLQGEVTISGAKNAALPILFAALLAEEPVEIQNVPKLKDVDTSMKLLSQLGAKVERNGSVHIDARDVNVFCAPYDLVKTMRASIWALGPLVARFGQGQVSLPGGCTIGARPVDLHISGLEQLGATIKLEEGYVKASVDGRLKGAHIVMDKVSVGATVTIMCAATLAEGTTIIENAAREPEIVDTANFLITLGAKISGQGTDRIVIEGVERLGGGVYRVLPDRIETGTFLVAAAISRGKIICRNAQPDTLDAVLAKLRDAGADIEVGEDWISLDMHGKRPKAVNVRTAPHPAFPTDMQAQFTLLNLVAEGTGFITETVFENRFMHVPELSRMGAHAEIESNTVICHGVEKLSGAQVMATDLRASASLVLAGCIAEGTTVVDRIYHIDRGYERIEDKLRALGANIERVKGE
# Experiment: Kinetic IC50 assay of MurA inhibition (Malachite Green), EPT E coli
# Assay type: biochemical
# Details: MurA enzyme, E coli; values given as ranges; read-out: IC50 EPT E coli
pIC50: −log10 of the molar value.
pIC50 reference

| Compound | Measurement Label | Recorded Result |
| --- | --- | --- |
| CC(C)(C)c1ccc(OC(=O)c2cccc3c2NC(C(=O)O)C2CC=CC32)cc1 (stereo not shown) [Compound 47] | pIC50 | 4.70 to 5.00 |
| O=C(O)C1Nc2c(COc3ccc(Cl)cc3)cccc2C2C=CCC12 (stereo not shown) [Compound 27] | pIC50 | < 3.70 |
| CC(=O)N(c1ccccc1)c1ccc(OC(=O)c2cccc3c2NC(C(=O)O)C2CC=CC32)cc1 (stereo not shown) [Compound 42] | pIC50 | 4.22 to 4.40 |

Kindly consider the entry below.
Which measured pIC50 value corresponds to O=C(c1ccccc1)c1ccc(OC(=O)c2cccc3c2NC(C(=O)O)C2CC=CC32)cc1 (stereo not shown) [Compound 41] ?
3.85 to 3.92

----------
# Tested On: MurA (EPT E coli) (Escherichia coli)
# Construct: made in house
# Experiment: Kinetic IC50 assay of MurA inhibition (Malachite Green), EPT E coli
# Format: biochemical
# Details: MurA enzyme, E coli; values given as ranges; read-out: IC50 EPT E coli
pIC50: −log10 of the molar value.
Measurement Label: pIC50

| Compound | pIC50 |
| --- | --- |
| CCOC(=O)C1Nc2c(C(=O)Oc3ccc(-c4cccc(C#N)c4)cc3)cccc2C2C=CCC12 (centres unmarked) | < 3.70 |
| CN(C)C(=O)c1cccc2c1NC(C(=O)O)C1CC=CC21 (centres unmarked) | < 3.70 |
| O=C(Nc1ccccc1)c1cccc2c1NC(C(=O)O)C1CC=CC21 (centres unmarked) | < 3.70 |
| O=C(Oc1ccc(-c2ccc([N+](=O)[O-])cc2)cc1)c1cccc2c1NC(C(=O)O)C1CC=CC21 (centres unmarked) | 4.22 to 4.40 |

Which measured pIC50 value corresponds to CCOC(=O)C1Nc2c(C(=O)Nc3ccccc3)cccc2C2C=CCC12 (centres unmarked) ?
< 3.70

----------
# Tested On: MurA (EPT E coli) (Escherichia coli)
# Construct: made in house
# Experiment: Kinetic IC50 assay of MurA inhibition (Malachite Green), EPT E coli
# Assay type: biochemical
# Details: MurA enzyme, E coli; values given as ranges; read-out: IC50 EPT E coli
pIC50: −log10 of the molar value.
pIC50 reference

Take a look at these entries with their results.
| Compound | Tested On | Recorded Result |
| --- | --- | --- |
| O=C(Oc1ccc(-c2ccc(Cl)cc2)cc1)c1cccc2c1NC(C(=O)O)C1CC=CC21 (stereo not drawn) | MurA (EPT E coli) (Escherichia coli) | 4.10 to 4.22 |
| O=C(O)C1Nc2ccc(F)c(Cl)c2C2C=CCC12 (stereo not drawn) | MurA (EPT E coli) (Escherichia coli) | < 3.70 |
| COc1ccc(-c2ccc(OC(=O)c3cccc4c3NC(C(=O)O)C3CC=CC43)cc2)cc1 (stereo not drawn) | MurA (EPT E coli) (Escherichia coli) | 4.22 to 4.40 |
| O=C(Oc1cc(Cl)cc(Cl)c1)c1cccc2c1NC(C(=O)O)C1CC=CC21 (stereo not drawn) | MurA (EPT E coli) (Escherichia coli) | 4.30 to 4.52 |
| CN(C)C(=O)c1ccc(-c2ccc(OC(=O)c3cccc4c3NC(C(=O)O)C3CC=CC43)cc2)cc1 (stereo not drawn) | MurA (EPT E coli) (Escherichia coli) | < 3.70 |

Which measured pIC50 value corresponds to COc1ccc(NC(=O)c2cccc3c2NC(C(=O)O)C2CC=CC32)cc1 (stereo not drawn) ?
< 3.70

Another compound to look at: O=C(Oc1ccc(Oc2ccccc2)cc1)c1cccc2c1NC(C(=O)O)C1CC=CC21 (stereo not drawn)
4.15 to 4.30

Another compound to look at: N#Cc1ccc(-c2ccc(OC(=O)c3cccc4c3NC(C(=O)O)C3CC=CC43)cc2)cc1 (stereo not drawn)
4.22 to 4.40

Another compound to look at: COc1ccc(-c2ccc(COc3cccc4c3NC(C(=O)O)C3CC=CC43)cc2)cc1 (stereo not drawn)
< 3.70

Another compound to look at: O=C(O)C1Nc2c(COc3ccc(-c4ccccc4)cc3)cccc2C2C=CCC12 (stereo not drawn)
< 3.70

Another compound to look at: O=C(O)C1Nc2c(C(=O)N3CCN(c4ccccc4)CC3)cccc2C2C=CCC12 (stereo not drawn)
< 3.70

----------
# Tested On: MurA (EPT E coli) (Escherichia coli, UniProt P0A749)
# Construct: made in house
# Experiment: Kinetic IC50 assay of MurA inhibition (Malachite Green), EPT E coli
# Assay type: biochemical
# Details: MurA enzyme, E coli; values given as ranges; read-out: IC50 EPT E coli
Measurement Label: IC50

| Compound | IC50 |
| --- | --- |
| COc1ccc(-c2ccc(N(Cc3cccc4c3NC(C(=O)O)C3CC=CC43)C(C)=O)cc2)cc1 (stereo not shown) [Compound 50] | 150 to 170 µM |
| O=C(Oc1ccc(-c2ccccc2)cc1Cl)c1cccc2c1NC(C(=O)O)C1CC3OC3C21 (stereo not shown) [Compound 22] | 40 to 60 µM |
| Cc1ccc(COc2cccc3c2NC(C(=O)O)C2CC=CC32)cc1 (stereo not shown) [Compound 30] | > 200 µM |

Param readout = IC50; param system = MurA (EPT E coli) (Escherichia coli, UniProt P0A749); param query = O=C(O)c1ccc2c(c1)C1C=CCC1C(C(=O)O)N2 (stereo not shown) [Compound 3] ; response: value
2 to 40 µM
